# Test system: Danio rerio embryo
# assay_explanation: EC20 Any effect; higher = less potent
# test_context: exposure time: 4 dpf
Assign True to entries whose EC20 Any effect meets or exceeds 3 µM; assign False to the rest.

>>> group("COC(=O)Nc1nc2cc(Sc3ccccc3)ccc2[nH]1")
"False"
>>> group("O=C(O)Cc1ccccc1Nc1c(Cl)cccc1Cl")
"True"
>>> group("CC(C)(C)C(O)C(Oc1ccc(Cl)cc1)n1cncn1 (centres undefined)")
"True"
>>> group("C[Si](Cn1cncn1)(c1ccc(F)cc1)c1ccc(F)cc1")
"False"
>>> group("CCCCOC(=O)[C@@H](C)Oc1ccc(Oc2ccc(C(F)(F)F)cn2)cc1")
"False"
>>> group("CN(Cc1cnc2nc(N)nc(N)c2n1)c1ccc(C(=O)N[C@@H](CCC(=O)O)C(=O)O)cc1 [Methotrexate]")
"True"
>>> group("COC(=O)Nc1nc2ccccc2[nH]1")
"False"
>>> group("CCCNCC(O)COc1ccccc1C(=O)CCc1ccccc1 (centres undefined)")
"True"

----------
Each item that follows carries a reported EC20 Any effect.
# Tested on: Danio rerio embryo
# assay_explanation: EC20 Any effect; higher = less potent
# test_context: exposure time: 4 dpf
test_readout: EC20 Any effect (µM)

>>> value_measured("CC1=C(/C=C/C(C)=C/C=C/C(C)=C/C(=O)O)C(C)(C)CCC1 [all-trans retinoic acid]")
0.007
>>> value_measured("CCCCC(O)(Cn1cncn1)c1ccc(Cl)cc1Cl (stereo not given)")
9.17
>>> value_measured("CSc1nc2cc(Cl)c(Oc3cccc(Cl)c3Cl)cc2[nH]1")
0.411
>>> value_measured("CCO/N=C(\\CC)C1=C(O)CC(c2c(C)cc(C)cc2C)CC1=O (stereo not given)")
52.7
>>> value_measured("CC1(C)OC(=O)C(OCC2CC2)=C1c1ccc(S(C)(=O)=O)cc1")
85.4

----------
# Test system: Danio rerio embryo
# assay_explanation: EC10 Bladder size_Decrease; higher = less potent
# test_context: exposure time: 4 dpf
Property: EC10 Bladder size Decrease; scope: individual compounds
test_readout: EC10 Bladder size Decrease

>>> value_measured("CNCCC=C1c2ccccc2CCc2ccccc21 [Nortriptyline]")
"4.59 µM"
>>> value_measured("CSc1nc2cc(Cl)c(Oc3cccc(Cl)c3Cl)cc2[nH]1 [Triclabendazole]")
"0.462 µM"
>>> value_measured("Cc1ccc(-c2cc(C(F)(F)F)nn2-c2ccc(S(N)(=O)=O)cc2)cc1 [Celecoxib]")
"7.91 µM"
>>> value_measured("CC1(C)OC(=O)C(OCC2CC2)=C1c1ccc(S(C)(=O)=O)cc1 [Firocoxib]")
"31.5 µM"
>>> value_measured("CCCNCC(O)COc1ccccc1C(=O)CCc1ccccc1 (stereo unspecified) [Propafenone]")
"6.71 µM"
>>> value_measured("CCCCC(O)(Cn1cncn1)c1ccc(Cl)cc1Cl (stereo unspecified) [Hexaconazole]")
"6.28 µM"

----------
# Tested on: Danio rerio embryo
# assay_explanation: EC20 Pigmentation decrease; higher = less potent
# test_context: exposure time: 4 dpf
test_readout: EC20 Pigmentation decrease

>>> value_measured("CCC(=O)OCC(=O)[C@@]1(OC(=O)CC)[C@@H](C)C[C@H]2[C@@H]3CCC4=CC(=O)C=C[C@]4(C)[C@@]3(F)[C@@H](O)C[C@@]21C [betamethasone dipropionate]")
"8.44 µM"
>>> value_measured("C[Si](Cn1cncn1)(c1ccc(F)cc1)c1ccc(F)cc1 [Flusilazole]")
"7.16 µM"
>>> value_measured("CCOC(=O)N1CCC(=C2c3ccc(Cl)cc3CCc3cccnc32)CC1 [Loratadine]")
"8.62 µM"
>>> value_measured("CC(=O)Nc1ccc(O)cc1 [Acetaminophen]")
"2730 µM"

The reported numbers originate from the supplement of paper PMC9013687.
